assayed.target: Mu-type opioid receptor (Rattus norvegicus)
Sequence (P33535 whole entry): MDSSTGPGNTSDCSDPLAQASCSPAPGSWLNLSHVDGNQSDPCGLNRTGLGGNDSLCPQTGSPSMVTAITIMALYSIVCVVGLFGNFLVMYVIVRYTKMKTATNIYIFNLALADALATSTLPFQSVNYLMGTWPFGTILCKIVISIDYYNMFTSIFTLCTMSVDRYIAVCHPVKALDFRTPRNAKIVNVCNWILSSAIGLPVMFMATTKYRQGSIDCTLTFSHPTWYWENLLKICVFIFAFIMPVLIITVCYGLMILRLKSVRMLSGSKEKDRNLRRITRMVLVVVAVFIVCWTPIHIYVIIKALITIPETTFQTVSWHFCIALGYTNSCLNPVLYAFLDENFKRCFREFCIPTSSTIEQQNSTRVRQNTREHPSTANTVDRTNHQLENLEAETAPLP
assay.overview: Binding affinity against Opioid receptor mu 1 from rat brain membranes using [3H]DAMGO
pKi: −log10 of the molar value.
Please mark YES if the recorded pKi is equal to or greater than 7, and NO if it falls below.

> print(dat)
                                    compound  class
 1  Oc1ccc2c3c1O[C@H]1c4ncccc4C[C@@]4(O)C(C2)N(CC2CC2)CCC314 (some centres not stated)    YES
 2  CCO[C@@]12Cc3c([nH]c4ccccc34)[C@]3(C)Oc4c(O)ccc5c4C31CCN(CC1CC1)[C@@H]2C5    YES
 3  CC(C)CN1CC[C@]23c4c5ccc(O)c4O[C@@H]2c2[nH]c4ccccc4c2C[C@@]3(O)[C@H]1C5     NO
 4  C=C(C)CN1CC[C@]23c4c5ccc(O)c4O[C@@H]2c2[nH]c4ccccc4c2C(C)[C@H]3[C@H]1C5 (some centres not stated)     NO
 5  C/C=C/CN1CC[C@]23c4c5ccc(O)c4O[C@@H]2c2[nH]c4ccccc4c2C(C)[C@H]3[C@H]1C5 (some centres not stated)     NO
 6  Oc1ccc2c3c1O[C@@H]1c4[nH]c5ccc(-c6ccccc6)cc5c4C[C@@]4(O)[C@@H](C2)N(CC2CC2)CC[C@]314     NO
 7  COc1ccc2c(c1O)[C@]13CCN(CC4CC4)C(C2)[C@@H]1CC1c2ccccc2NC1C3 (some centres not stated)     NO
 8  Oc1ccc2c3c1O[C@H]1c4nc(-c5ccccc5)ncc4C[C@@]4(O)C(C2)N(CC2CC2)CCC314 (some centres not stated)    YES
 9  C=C(C)CN1CCC23c4c5ccc(O)c4O[C@H]2C(=O)C2(CCc4ccccc42)C[C@@]3(O)C1C5 (some centres not stated)     NO
10  O=C1CC[C@@]2(OCCCc3ccccc3)C3Cc4cccc5c4C2(CCN3CC2CC2)C1O5 (some centres not stated)    YES
11  CN1CCC23c4c5ccc(O)c4O[C@H]2c2ncc(-c4ccccc4)cc2C[C@@]3(O)C1C5 (some centres not stated)    YES
12  COc1ccc2c(c1O)[C@]13CCN(C)C(C2)[C@@H]1CC1c2ccccc2NC1C3 (some centres not stated)     NO
13  CCCCCN1CC[C@]23c4c5ccc(O)c4O[C@@H]2c2[nH]c4ccccc4c2C[C@@]3(O)[C@H]1C5     NO
14  CCN1CC[C@]23CC4Nc5ccccc5C4C[C@@]2(O)C1Cc1ccc(OC)c(O)c13 (some centres not stated)     NO
15  Oc1ccc2c3c1O[C@H]1c4ncc(-c5ccc(Cl)cc5)cc4C[C@@]4(O)C(C2)N(CC2CC2)CCC314 (some centres not stated)    YES
16  CC1c2c([nH]c3ccccc23)[C@H]2Oc3c(O)ccc4c3[C@@]23CCN(C)[C@H](C4)[C@H]13 (some centres not stated)     NO
17  CO[C@@]12CCC(=O)CC13CCN(CC1CC1)C2Cc1cccc(OCc2ccccc2)c13 (some centres not stated)    YES
18  CCN1CC[C@]23c4c5ccc(O)c4O[C@@H]2c2[nH]c4ccccc4c2C[C@@]3(O)[C@H]1C5     NO
19  Oc1ccc2c3c1O[C@H]1c4nc(-c5ccccc5)ccc4C[C@@]4(O)C(C2)N(CC2CC2)CCC314 (some centres not stated)    YES
20  C/C=C/CN1CC[C@]23c4c5ccc(O)c4O[C@@H]2c2[nH]c4ccccc4c2C[C@@]3(O)[C@H]1C5     NO
21  CCCCCCOc1cccc2c1C13CCN(CC4CC4)C(C2)[C@]1(OC)CCC(=O)C3 (some centres not stated)    YES
22  CCCCC1c2c([nH]c3ccccc23)[C@H]2Oc3c(O)ccc4c3[C@@]23CCN(C)[C@H](C4)[C@H]13 (some centres not stated)     NO
23  CN1CCC23c4c5ccc(O)c4O[C@H]2c2ncc(-c4ccc(Cl)cc4)cc2C[C@@]3(O)C1C5 (some centres not stated)     NO
24  Oc1ccc2c3c1O[C@H]1c4ncncc4C[C@@]4(O)C(C2)N(CC2CC2)CCC314 (some centres not stated)    YES
25  CO[C@@]12CCC(=O)CC13CCN(CC1CC1)C2Cc1cccc(OCCCc2ccccc2)c13 (some centres not stated)    YES
26  CCCCCCN1CC[C@]23c4c5ccc(O)c4O[C@@H]2c2[nH]c4ccccc4c2C[C@@]3(O)[C@H]1C5     NO
27  Oc1ccc2c3c1O[C@@H]1c4[nH]c5cc(-c6ccccc6)ccc5c4C[C@@]4(O)[C@@H](C2)N(CC2CC2)CC[C@]314     NO
28  CC1CN(CCCc2ccccc2)C2CC(NC(=O)CCCN(C)C)CC1(c1cccc(O)c1)C2 (configuration not stated)    YES
